This collection of values is drawn from patent US20180334702A1.

Recorded relative luminescence intensity (CDK6 = 100%) for the following binders
Target: CDK2/cyclin E1 (UniProt P24941 1-298; P24864 1-410)
Test: cell-based or functional assay
No end group written: not given here. *: point of attachment. aminohexane = linker joining biotin to the N-terminal residue; Biotin = O=C1N[C@H]2[C@H](CS[C@H]2CCCCC(=O)*)N1
The answer is to be given in %; state only the numeric part.

{"binder": "{Biotin-aminohexane}-GGGRAAPLSPIPHIPR [Comparative Polypeptide 6]", "reported_result": 44}
{"binder": "{Biotin-aminohexane}-LVEMTGLSPRVIRVW [Comparative Polypeptide 7]", "reported_result": 10}
{"binder": "{Biotin-aminohexane}-GGGKAPLTPKDAD [Polypeptide 22]", "reported_result": 15}
{"binder": "{Biotin-aminohexane}-GGGRAAPLSPIDHIPD [Polypeptide 25]", "reported_result": 62}
{"binder": "{Biotin-aminohexane}-GGGKAPLTPKKAK [Comparative Polypeptide 5]", "reported_result": 156}

Reported relative luminescence intensity (CDK6 = 100%) for {Biotin-aminohexane}-GGGRAAPLSPDPHIPD [Polypeptide 24] was 54

Summary for this binder, {Biotin-aminohexane}-RRRFRPASPLRGPPK [Comparative Polypeptide 2] : relative luminescence intensity (CDK6 = 100%) is 321
